target: T1, VEGFR-1-Fc (UniProt P17948 27-338); assay: receptor-Fc IP
T1 construct: domain: first three Ig domains; expressed in Drosophila S2 cells, purified on Protein A sepharose; also called VEGFR-1-Fc fusion protein; not shown: Fc fragment from the Signal-pIgPlus vector
T1 sequence (P17948 27-338): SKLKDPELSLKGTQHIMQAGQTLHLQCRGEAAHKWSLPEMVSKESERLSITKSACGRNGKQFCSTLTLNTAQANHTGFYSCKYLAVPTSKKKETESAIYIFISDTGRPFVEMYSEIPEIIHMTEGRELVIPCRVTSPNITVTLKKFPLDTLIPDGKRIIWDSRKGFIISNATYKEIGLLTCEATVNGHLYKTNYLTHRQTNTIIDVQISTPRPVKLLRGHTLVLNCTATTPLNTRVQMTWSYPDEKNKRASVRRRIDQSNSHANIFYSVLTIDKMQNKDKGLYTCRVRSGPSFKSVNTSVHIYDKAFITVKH
OBSERVED PROPERTY: binding result

Sample records with binding result:
13-4 (ligand) GQNHHEVVKFMDVYQRSYCHPIETLVDIFQEYPDEIEYIFKPPCVSVYRCGGCCNSEGLQCMNTSTSYLSKTLFEIKPHQGQHIGEMSFLQHNKCECRPKKD | no binding
61-10 (ligand) GQNHHEVVKFMDVYQRSYCHPREVCIDVGKEYPDEIEYIFKPSCVPLMRCGGCCNDEGLECMNTSTSYLSKTLFEITVPLSQGPKPVTISFLQHNKCECRPKKD | no binding
43-7 (ligand) AHYNTEILKFMDVYQRSYCHPREVCIDVGKEYPDEIEYIFKPPCVSVYRCGGCCNSEGLQCVPTEESNITMQIMRIKPHQGQHIGEMSFANHTSCRCMSKLD | no binding
42-15 (ligand) AHYNTEILKFMDVYQRSYCHPREVCIDVGKEFGVATNTFFKPPCVSVYRCGGCCNSEGLQCVPTEESNITMQIMRITVPLSQGPKPVTISFANHTSCRCMSKLD | no binding

Quick note, binding result for 71-5 (ligand) GQNHHEVVKSIDNEWRKTQCMPREVCIDVGKEYPDEIEYIFKPSCVPLMRCGGCCNDEGLECVPTEESNITMQIMRIKPHQGQHIGEMSFANHTSCRCMSKLD landed at no binding

Query 12-15 (ligand) GQNHHEVVKFMDVYQRSYCHPIETLVDIFQEFGVATNTFFKPPCVSVYRCGGCCNSEGLQCVPTEESNITMQIMRITVPLSQGPKPVTISFANHTSCRCMSKLDLVFEQKLISEEDLNSAVDHHHHHH yields binding result of no binding

The binder identified as 61-8 (ligand) GQNHHEVVKFMDVYQRSYCHPREVCIDVGKEYPDEIEYIFKPSCVPLMRCGGCCNSEGLQCMNTSTSYLSKTLFEIKPHQGQHIGEMSFANHTSCRCMSKLD registered its binding result at no binding

binding result reading for 21-2 (ligand) AHYNTEILKSIDNEWRKTQCMPREVCIDVGKEYPDEIEYIFKPSCVPLMRCGGCCNDEGLECMNTSTSYLSKTLFEIKPHQGQHIGEMSFLQHNKCECRPKKD : no binding
